Reference source for all entries: ChEMBL document CHEMBL4765457

Test system: Human immunodeficiency virus 1
Assay: Antiviral activity against HIV1 harboring RT K103N mutant infected in human MT4 cells assessed as inhibition of virus-induced cytopathic effect incubated for 5 days by MTT assay
Assay type: functional, organism-based
Conditions: Human immunodeficiency virus 1, MT4, 120 h
measured metric: pEC50
Value format note: pEC50 is -log10 of concentration (mol/L); just state the number.

smiles str | quantitative readout
Cc1cc(C#N)cc(C)c1Oc1nc(NC2CCN(CCN3CCOCC3)CC2)nc2cc(F)ccc12 | 6.28

I'd like to know its pEC50. The compound in question is Cc1cc(C#N)cc(C)c1Oc1nc(NC2CCN(CCN3CCOCC3)CC2)nc2ccsc12
5.98

Same for Cc1cc(C#N)cc(C)c1Oc1nc(Nc2ccc(C#N)cc2)nc(N)c1Br
8.52

Same for Cc1cc(C#N)cc(C)c1Oc1nc(NC2CCN(CC(=O)N3CCOCC3)CC2)nc2scnc12
5.43

Same for O=C1Nc2ccc(Cl)cc2[C@@](C#CC2CC2)(C(F)(F)F)O1
7.03
